src = patent US6569894B1

- experimental_target: ML1a receptor (Homo sapiens)
- Construct: expressed in transfected cells; pcDNA3)
- Sequence (P48039 whole entry): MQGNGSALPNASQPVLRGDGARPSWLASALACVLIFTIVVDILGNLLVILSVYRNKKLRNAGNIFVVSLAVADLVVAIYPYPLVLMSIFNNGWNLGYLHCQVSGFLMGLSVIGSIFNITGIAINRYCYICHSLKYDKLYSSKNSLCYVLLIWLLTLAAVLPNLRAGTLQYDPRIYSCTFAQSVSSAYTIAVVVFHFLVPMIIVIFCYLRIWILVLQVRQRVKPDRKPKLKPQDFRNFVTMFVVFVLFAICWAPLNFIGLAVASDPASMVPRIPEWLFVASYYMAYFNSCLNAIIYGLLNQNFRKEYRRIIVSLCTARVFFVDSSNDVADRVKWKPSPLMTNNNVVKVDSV
- assay_overview: Melatonergic receptor binding activity, 2-[125I]-iodomelatonin, ML1a
- condition_details: Table V; membrane homogenates of NIH-3T3 cells, 37° C. for 1 hour
Answer each item with its documented IC50.

Inquiry: # input compound: "CCCC(=O)NC[C@@H]1C[C@H]1c1cccc2c1C[C@@H](CCCCc1ccccc1)O2" ; wanted: its IC50
Reply text: < 10 nM

Inquiry: Report IC50 for CCNC(=O)NCC1CC1c1c(Cl)ccc2c1CC(CCCCc1ccccc1)O2 (stereo not shown) please.
Reply text: 10 to 250 nM

Inquiry: Would you kindly share the measured IC50 for "CCC(=O)NC[C@@H]1C[C@H]1c1cccc2c1C[C@@H](CCCCc1ccccc1)O2" ?
Reply text: < 10 nM

Inquiry: Return reported IC50; argument: "CCNC(=O)NC[C@@H]1C[C@H]1c1cccc2c1C[C@@H](CCCCc1ccccc1)O2"
Reply text: 10 to 250 nM

Inquiry: What value of measured IC50 is listed for "O=C(NC[C@@H]1C[C@H]1c1cccc2c1C[C@@H](CCCCc1ccccc1)O2)C1CC1" ?
Reply text: < 10 nM

Inquiry: Item "CC(C)C(=O)NC[C@@H]1C[C@H]1c1cccc2c1C[C@@H](CCCCc1ccccc1)O2" has what recorded IC50?
Reply text: 10 to 250 nM

Inquiry: Bench note: what IC50 did "CC(=O)NC[C@@H]1C[C@H]1c1cccc2c1C[C@@H](CCCCc1ccccc1)O2" show?
Reply text: < 10 nM

* * *

Give measured melting point for each item. Keep answers brief.

Inquiry: // returns reported melting point for input "CC(=O)NC[C@@H]1C[C@H]1c1cccc2c1C[C@@H](CCCCc1ccccc1)O2"
Reply text: 65 to 66 °C

Inquiry: Query: melting point; subject: O=C(NCCCc1cccc2c1C[C@H](CCCCc1ccccc1)O2)C1CC1 (stereo in doubt)
Reply text: 63 to 64 °C

Inquiry: Param item = CC(=O)NCCCc1cccc2c1C[C@H](CCCCc1ccccc1)O2 (stereo in doubt) ; retrieve measured melting point.
Reply text: 40 to 41 °C

Inquiry: What measured melting point goes with "CCNC(=O)NC[C@@H]1C[C@H]1c1cccc2c1C[C@@H](CCCCc1ccccc1)O2" ?
Reply text: 69 to 70 °C

Inquiry: Give its melting point value. Item: "O=C(NCCCc1cccc2oc(CCCCc3ccccc3)cc12)C1CC1"
Reply text: 70 to 71 °C

Inquiry: Entry CCNC(=O)NCC1CC1c1c(Cl)ccc2c1CC(CCCCc1ccccc1)O2 (stereo not drawn) has what melting point?
Reply text: 126 to 128 °C
